Test system: SR leukemia
assay: NCI-60 one-dose screen, 48 h (100 = growth as untreated, 0 = no growth, -100 = all killed)
conditions: 10 µM unless noted
About 83,000 compounds went through this panel and 20% of them were active in at least one assay; those are over-represented in the sample as a whole.
Decide using growth: a value greater than or equal to 40% is YES, a smaller one is NO.

{"compound": "COc1cc(OC)c(/C=C/C(=O)c2c(OC)cccc2OC)c(OC)c1", "label": "NO"}
{"compound": "C=C(C)[C@@H]1CC[C@]2(CO)CC[C@]3(C)[C@H](CC[C@@H]4[C@@]5(C)CC[C@H](NCO)C(C)(C)[C@@H]5CC[C@]43C)[C@@H]12", "label": "NO"}
{"compound": "COc1ccc(\\C=N/N=C(N)/C(N)=N\\N=C/c2ccc(OC)cc2)cc1", "label": "YES"}
{"compound": "COc1ccc(OC)c(/C=N/Nc2ncnc3c2c(C)nn3C)c1", "label": "YES"}
{"compound": "COc1ccc(C2=Nc3c(N)nc(N)nc3NC(c3cccc(Nc4ccnc5cc(C(F)(F)F)ccc45)c3)C2)cc1 (centres undefined)", "label": "NO"}
{"compound": "COc1ccc(-c2nn(-c3cccc(Cl)c3)cc2-c2cc(-c3ccc(Br)cc3)nc(N)n2)cc1", "label": "YES"}
{"compound": "Cc1cc(S(=O)(=O)/N=C(\\N)n2nc(C)c(C)c2C)c(SCc2ccccc2)cc1Cl", "label": "YES"}
{"compound": "C=CC[Se]C(=O)Cc1c(C)n(C(=O)c2ccc(Cl)cc2)c2ccc(OC)cc12", "label": "NO"}
{"compound": "O=C(N(c1ccccc1)c1ccccc1)n1cc(I)c2nc(Cl)nc(Cl)c21", "label": "NO"}
{"compound": "COC(=O)CC[C@@H]1O[C@@H](c2cccc(C(F)(F)F)c2)[C@@H](O)[C@H]1O", "label": "YES"}
{"compound": "COc1ccc(C(O)c2cc3c(N)c(C(=O)Nc4cccc(Br)c4)sc3nc2C)cc1 (centres undefined)", "label": "NO"}
{"compound": "O=C1Nc2ccccc2/C1=C/c1cccn1CCCCn1c2ccccc2c(=O)c2ccccc21", "label": "YES"}
{"compound": "C=C1C(=O)O[C@H]2[C@H]1CC/C(Cn1cc(-c3ccccc3)nn1)=C\\CC[C@@]1(C)O[C@@H]21", "label": "NO"}
{"compound": "CCOC(=O)NC(C)C", "label": "YES"}
{"compound": "CCCCCCCCCc1ccc(OCCOCCOCCOCCOCCOCCOCCOCCOCCO)cc1", "label": "NO"}
{"compound": "CCSC(SCC)c1ccc(Cl)cc1", "label": "YES"}
{"compound": "O=C(CN1CCOCC1)Nc1nc(-c2cc3ccccc3oc2=O)cs1", "label": "YES"}
{"compound": "CC1OC(n2c3ccccc3c3c4c(c5c6ccccc6[nH]c5c32)C(=O)N(CCN2CCCC2)C4=O)CC(O)C1O (centres undefined)", "label": "NO"}
{"compound": "CS(=O)(=O)c1ccc(-c2cnn3ccc(-c4cccc(S(=O)(=O)C5CC5)c4)nc23)cc1", "label": "YES"}
{"compound": "Cc1c(O)cc(-c2cnc(Nc3ccccc3)s2)c(O)c1C", "label": "YES"}
{"compound": "CNC(=O)c1[nH]cc(-c2ccc(OC)cc2)c1-c1cc(OC)c2c(c1OC)OCO2", "label": "YES"}
{"compound": "CCN1CCN(C(=O)[C@]23CCC(C)(C)C[C@@H]2C2=CC[C@@H]4[C@@]5(C)CCC(=O)C(C)(C)[C@@H]5CC[C@@]4(C)[C@]2(C)CC3)CC1", "label": "NO"}
{"compound": "CCCNC(=O)Nc1ccc2cc3ccc(NC(=O)NCCC)cc3nc2c1", "label": "NO"}
{"compound": "O=C(/C=C/c1cccc(Cl)c1)c1cccc(OCCCOc2cccc(C(=O)/C=C/c3cccc(Cl)c3)c2)c1", "label": "NO"}
{"compound": "C=C(CBr)[C@@H]1CC[C@]2(C(=O)O)CC[C@]3(C)[C@H](CC[C@@H]4[C@@]5(C)CCC(=O)C(C)(C)[C@@H]5CC[C@]43C)[C@@H]12", "label": "YES"}
{"compound": "COc1ccc(C(=O)C/C(=C\\c2ccc(Cl)cc2)C(=O)NCc2ccccc2)cc1", "label": "YES"}
{"compound": "O=C(Nc1ccccc1)Nc1ncnc2c1ncn2-c1ccc(Cl)cc1", "label": "YES"}
{"compound": "O=C(Nc1nc2cc(C(=O)N3CCN(C(c4ccccc4)c4ccccc4)CC3)ccc2o1)c1ccc(NC2CCCCC2)c([N+](=O)[O-])c1", "label": "YES"}

----------
Test system: HT29 colon
assay: NCI-60 one-dose screen, 48 h
conditions: 10 µM unless noted
This is part of a sample that, as a whole, favours compounds with a hit. Of some 83,000 tested, about 20% had one in any assay. The source made the active and inactive calls. How the source made its calls: active means growth percent below 10; inactive means the rest.
Outcome codes: active, inactive

{"compound": "CC1OC(n2c3ccccc3c3c4c(c5c6ccccc6[nH]c5c32)C(=O)N(CCN2CCCC2)C4=O)CC(O)C1O (centres undefined)", "label": "active"}
{"compound": "O=C(Nc1nc2ccc(C(=O)N3CCN(/C=C/c4ccccc4)CC3)cc2s1)c1ccc(NCCc2ccccc2)c([N+](=O)[O-])c1", "label": "active"}
{"compound": "COc1ccc(C(=O)N2c3ccccc3Sc3ccccc32)c(OC)c1", "label": "active"}
{"compound": "O=S(=O)(NCCCNc1nccc(-c2c(-c3ccc(F)c(O)c3)nc3occn23)n1)c1ccc(Cl)cc1", "label": "inactive"}

----------
System: PC-3 prostate
assay: NCI-60 one-dose screen, 48 h
conditions: 10 µM unless noted
Compounds without any hit were thinned out: in the full panel of roughly 83,000, 20% have a hit. Activity calls are given as the source filed them. The calls were made as follows: active = growth percent below 10; inactive = the rest.
Outcome codes: active, inactive

{"compound": "CNC(=O)c1[nH]cc(-c2ccc(OC)cc2)c1-c1cc(OC)c2c(c1OC)OCO2", "target-under-test": "PC-3 prostate", "label": "inactive"}
{"compound": "C#COc1cccc(Nc2c(C#N)cnc3ncc(NC(=O)CCl)cc23)c1", "target-under-test": "PC-3 prostate", "label": "inactive"}
{"compound": "NC(=O)c1ccc(-c2c3ccccc3cc3c2ccc2ccccc23)cc1", "target-under-test": "PC-3 prostate", "label": "inactive"}
{"compound": "CCCCCCCCCCCCCCCCOCCCOP(=O)(O)C1CCCN(O)C1=O (centres undefined)", "target-under-test": "PC-3 prostate", "label": "inactive"}
{"compound": "CCCCNCCCCCNc1cc(OC)cc2cccnc12", "target-under-test": "PC-3 prostate", "label": "inactive"}
{"compound": "COCCOc1cc2ncnc(N3CCN(c4ncc(S(=O)(=O)N5CCCCC5)cn4)CC3)c2cc1OCCOC", "target-under-test": "PC-3 prostate", "label": "inactive"}
{"compound": "O=S(=O)(NCCNc1nccc(-c2c(-c3ccc(F)c(O)c3)nc3occn23)n1)c1ccc(Cl)cc1", "target-under-test": "PC-3 prostate", "label": "inactive"}
{"compound": "CC/C(=C(/c1ccc(Cl)cc1)c1ccc(OCCN(C)C)cc1)c1ccc(Cl)cc1", "target-under-test": "PC-3 prostate", "label": "inactive"}
{"compound": "O=C(Nc1ccc(OS(=O)(=O)c2ccc(F)cc2)cc1)C1CCCCCC1", "target-under-test": "PC-3 prostate", "label": "inactive"}
{"compound": "CN(C)S(=O)(=O)c1cccc(C(=O)Nc2nc(-c3ccc(F)c(F)c3)cs2)c1", "target-under-test": "PC-3 prostate", "label": "inactive"}
{"compound": "c1ccc2cc(C[n+]3ccn(CCCCCCCCCCn4cc[n+](Cc5ccc6ccccc6c5)c4)c3)ccc2c1", "target-under-test": "PC-3 prostate", "label": "active"}
{"compound": "CC(=O)c1c(C)nc2ccccc2c1/C=C/c1ccc(F)cc1", "target-under-test": "PC-3 prostate", "label": "inactive"}
{"compound": "Cn1cc(-c2nonc2-c2cn(C)c3ccccc23)c2ccccc21", "target-under-test": "PC-3 prostate", "label": "inactive"}
{"compound": "N#CC1=C(N)Oc2c(sc3c(Br)cccc23)C1c1ccc(Cl)cc1 (centres undefined)", "target-under-test": "PC-3 prostate", "label": "inactive"}
{"compound": "COc1ccc(/C=C(\\C#N)n2nnc3cc(Cl)ccc32)cc1", "target-under-test": "PC-3 prostate", "label": "inactive"}
{"compound": "CCOC(=O)NC(C)C", "target-under-test": "PC-3 prostate", "label": "inactive"}
{"compound": "CCN(CC)CCn1c2ccc(OC)cc2c2sc3cc(OC)ccc3c(=O)c21", "target-under-test": "PC-3 prostate", "label": "inactive"}
{"compound": "Cc1c2cnccc2c(C)c2c1c1cc(C#N)ccc1n2C", "target-under-test": "PC-3 prostate", "label": "active"}
{"compound": "O=C(Nc1ccc(Oc2cccc(Cl)c2)c(Cl)c1)c1cccnc1", "target-under-test": "PC-3 prostate", "label": "inactive"}
{"compound": "COc1ccc(Cc2cnc(NC(=O)c3cc(C)oc3C)s2)cc1", "target-under-test": "PC-3 prostate", "label": "inactive"}
{"compound": "Cc1cc(C(=O)Nc2ncc(Cc3cccc(C(F)(F)F)c3)s2)c2ccccc2n1", "target-under-test": "PC-3 prostate", "label": "inactive"}
{"compound": "O=C(/C=C/c1ccco1)Nc1ncc(Cc2cccc(C(F)(F)F)c2)s1", "target-under-test": "PC-3 prostate", "label": "inactive"}
{"compound": "O=C1Nc2ccccc2/C1=C/c1cccn1CCCCn1c2ccccc2c(=O)c2ccccc21", "target-under-test": "PC-3 prostate", "label": "inactive"}
{"compound": "O=C1/C(=C/c2ccc([N+](=O)[O-])cc2)COc2ccc(O)cc21", "target-under-test": "PC-3 prostate", "label": "inactive"}
{"compound": "C=C1C(=O)O[C@H]2[C@H]1CC/C(COC(=O)NCc1ccc(Cn3c(=O)sn(CCCCC)c3=O)cc1)=C\\CC[C@@]1(C)O[C@@H]21", "target-under-test": "PC-3 prostate", "label": "inactive"}
{"compound": "COc1ccc(OC)c(Nc2nnc(-c3ccc(O)c(OC)c3)o2)c1", "target-under-test": "PC-3 prostate", "label": "inactive"}
{"compound": "COc1ccc(/C=N/C2=C(C#N)C(c3ccccc3)c3ccc4ccccc4c3O2)cc1 (centres undefined)", "target-under-test": "PC-3 prostate", "label": "active"}
{"compound": "COc1cc2nc3cc([N+](=O)[O-])ccc3c(NCCNCC(C)O)c2cc1OC (centres undefined)", "target-under-test": "PC-3 prostate", "label": "active"}
{"compound": "O=S(=O)(NCCCNc1nccc(-c2c(-c3ccc(F)c(O)c3)nc3occn23)n1)c1ccc(Cl)cc1", "target-under-test": "PC-3 prostate", "label": "inactive"}
